Target: T1, recombinant biotinylated CD137 protein (Fc-fusion protein, R&D Systems 838-4B) (human, UniProt Q07011 24-186, biotinylated, sites not stated)
T1 construct: Bought Fc fusion; also called CD137-Fc
Test: ELISA, lysate on biotinylated CD137-Fc
Experimental: Streptavidin-coated Maxisorp plates (Nunc catalog 436110) were blocked for 1 h in Starting Block T20 (Pierce) and then coated with biotinylated CD137 (using same antigen as in panning) or negative controls (an unrelated Fc-fused recombinant protein and human serum albumin) for 1 h. Plates were rinsed with TBST and diluted lysate was applied to plates for 1 h. […]
Readings of ELISA CD137 (RLU) for the listed binders

| binder | ELISA CD137 (RLU) |
| --- | --- |
| ISOP193ER9P1C9 (designed binder, not shown: small tags and cut ends) LPAPKNLVVSRVTEDSARLSWTAPDAAFDSFDIYYFEHPVGGEAIVLTVPGSERSYDLTGLKPGTEYLVTIYGVKGGELSKPLSAISTT | 1.43e+07 |
| ISOP193AR9P1A11 (designed binder, not shown: small tags and cut ends) LPAPKNLVVSRVTEDSARLSWALSSVHAYFDSFLIQYQESEKVGEAIVLTVPGSERSYDLTGLKPGTEYTVSIYGVQYVDGFFKSNPLSAIFTT | 8.66e+06 |
| ISOP193ER9P1A11 (designed binder, not shown: small tags and cut ends) LPAPKNLVVSRVTEDSARLSWTAPDAAFDSFAIQYQEYVAHGEAIVLTVPGSERSYDLTGLKPGTEYHVRISGVKGGGVSWPLSAIFTT | 1.28e+07 |
| ISOP193FR9P1G8 (designed binder, not shown: small tags and cut ends) LPAPKNLVVSRVTEDSARLSWTAPDAAFDSFEIYYFENELGGEAIVLTVPGSERSYDLTGLKPGTEYLVTIYGVKGCDWSDPLSAIFTT | 1.45e+07 |
| ISOP193HR9P1D11 (designed binder, not shown: small tags and cut ends) LPAPKNLVVSRVTEDSARLSWTAPDAAFDSFDIYYYELRLGGEAIVLTVPGSERSYDLTGLKPGTEYLVTIYGVKVCEQSYPLSAIFTT | 1.42e+07 |
| ISOP193ER9P1C8 (designed binder, not shown: small tags and cut ends) LPAPKNLVVSRVTEDSARLSWTAPDAAFDSFDIYYFEHPVGGEAIVLTVPGSERSYDLTGLKPGTEYLVTIYGVKGGTYSLPLSAIFTT | 1.67e+07 |
| ISOP193ER9P1C10 (designed binder, not shown: small tags and cut ends) LLAPKNLVVSRVTEDSARLSWIAPDAAFDSFEIYYKELRAEGEAIVLTVPGSERSYDLTGLKPGTEYLVTIYGVKGGSVSIPLSAIFTT | 8.87e+06 |
| ISOP193FR9P1G2 (designed binder, not shown: small tags and cut ends) LPAPKNLVVSRVTEDSARLSWTAPDAAFDSFTIYYFENENGGEAIVLTVPGSERSYDLTGLKPDTEYLVTIYGVKGGHWSRPLSAIFTT | 7.86e+06 |
| ISOP193FR9P1D1 (designed binder, not shown: small tags and cut ends) LPAPKNLVVSRVTEDSARLSWTAPDAAFDSFFIQYLEDVTNGEAIVLTVPGSERSYDLTGLKPGTEYRVPIAGVKGGRDSQPLSAIFTT | 8.13e+06 |
